Data provenance: PubChem BioAssay

- assay: reversal of MRP1-mediated doxorubicin resistance, pilot screen, H69AR cells, doxorubicin co-treatment (AID 601)
- recorded_conditions: H69AR cells + 2 uM doxorubicin, CellTiter-Glo, 72 h; at 10 µM; hits give high values
recorded_metric: differential viability (reversal) (%)
Report as a plain number; the unit % is understood.

Recorded results for 8 compounds are shown here.
1. COc1ccc(-c2noc(C3CCCN(C(=O)CCc4ccccc4)C3)n2)cc1 (stereo not drawn); -5.7
2. COC(=O)C1=C(C)N(c2ccc(C(=O)OC)cc2)C(=O)C1; 2.86
3. COC(=O)C1=C(C)Nc2ncnn2C1c1ccco1 (stereo not drawn); 4.73
4. c1ccc(-c2nc3cnccn3c2Nc2ccc3c(c2)OCCO3)cc1; 38.5
5. Cc1ccccc1-n1c(SCc2c(C)noc2C)nnc1-c1ccncc1; 8.34
6. CN(C)c1cccc(NC(=O)CCc2ccccc2)c1; -7.99
7. COc1cccc(N2C(=O)N(c3ccccc3Cl)C3CS(=O)(=O)CC32)c1 (stereo not drawn); 9.28
8. CC1CC(C)CN(c2nc3c(c(=O)[nH]c(=O)n3C)n2CCCSc2nc3ccccc3s2)C1 (stereo not drawn); -5.73

The recorded differential viability (reversal) for entry CCOC(=O)n1c(=O)oc2cc(S(=O)(=O)N3CCCCC3)ccc21 equals -0.62

The recorded differential viability (reversal) for entry CCN(CC)S(=O)(=O)c1ccc2oc(C(=O)O)c(C)c2c1 equals 10.4

The recorded differential viability (reversal) for entry Cc1occc1C(=O)Nc1ccc(S(=O)(=O)N2CCN(C)CC2)cc1 equals 5.85

The recorded differential viability (reversal) for entry CC1Cc2ccccc2N1CC(=O)NC(=O)NCc1ccco1 (stereo not drawn) equals -30.2

The recorded differential viability (reversal) for entry Cc1cccc(C)c1NC(=O)c1cc(S(=O)(=O)N2CCOCC2)ccc1F equals 0.745
